- Tested on: FD (familial dysautomonia) IKBKAP minigene, exon 20 inclusion, in HEK293T cells
- Experiment description: Primary splicing assay (FD IKBKAP minigene, Firefly/Renilla luciferase reporter in HEK293T)
- Format: cell-based, human
- Condition context: Homo sapiens, HEK-293T; max efficacy in Primary Assay; Firefly/Renilla ratio, kinetin and DMSO as positive and negative controls; 24 hours of treatment; read-out: Emax (%)
Readout label: Emax

- Brc1nc(NCc2ccco2)c2nc[nH]c2n1: 106%
- Clc1nc(NCc2ccco2)c2[nH]cnc2n1: 73.1%
- Cn1cnc2nc(Cl)nc(NCc3ccco3)c21: 198%
- Clc1nc(NCc2cscn2)c2cc[nH]c2n1: 126%
- CNC(=O)c1nc2c(NCc3ccncc3)nc(Cl)nc2[nH]1: 63%
- CN(Cc1ccncc1)c1nc(Cl)nc2[nH]ccc12: 57.8%
- Cc1c[nH]c2nc(Cl)nc(NCc3ccncn3)c12: 155%
- Cn1cnc2nc(Cl)nc(NCc3ccncn3)c21: 108%
- Clc1nc(NCc2ccncc2)c2nc(OCC3CCC3)[nH]c2n1: 292%
- Clc1nc(NCc2nccs2)c2nc(OCC#Cc3ccccc3)[nH]c2n1: 25.5%
- CCOc1nc2c(NCc3ccco3)nc(Cl)nc2[nH]1: 152%
- FC(F)(F)CCOc1nc2c(NCc3nccs3)nc(Cl)nc2[nH]1: 193%
- CCCOc1nc2c(NCc3ccncc3)nc(Cl)nc2n1CCO: 188%
- OCCn1ncc2c(NCc3ccco3)nc(Cl)nc21: 176%
- Clc1nc(NCc2ccco2)c2nc(OC[C@@H]3CCOC3)[nH]c2n1: 151%
- OCCOc1nc2c(NCc3ccco3)nc(Cl)nc2[nH]1: 230%
- Clc1nc2c(c(NCc3ccco3)n1)CCC2: 221%
- c1nc(NCc2cnn[nH]2)c2nc[nH]c2n1: 20%
- FC(F)(F)COc1nc2c(NCc3ccncn3)nc(Cl)nc2[nH]1: 209%
- Cn1cnc2nc(Cl)nc(NCc3nccs3)c21: 166%
- Cn1cnc2c(NCc3nccs3)nc(Cl)nc21: 45%
- CC(Nc1nc(Cl)nc2[nH]ccc12)c1nccs1 (stereo not drawn): 18.2%
- c1coc(CNc2ncnc3[nH]ccc23)c1: 59%
- N#CCc1nc2c(NCc3ccco3)nc(Cl)nc2[nH]1: 139%
- Clc1nc(NCc2ccco2)c2nc(OCC3CCC3)[nH]c2n1: 310%
- Clc1nc(NCc2cccs2)c2[nH]cnc2n1: 52.3%
- [N-]=[N+]=Nc1nc2c(NCc3ccco3)nc(Cl)nc2[nH]1: 143%
- COc1nc2c(NCc3ccco3)nc(Cl)nc2n1CCO: 150%
- Clc1nc(NCc2nccs2)c2cn[nH]c2n1: 146%
- NC(=O)c1nc2c(NCc3ccncc3)nc(Cl)nc2[nH]1: 31%
- Clc1nc(NCc2nccs2)c2nc(OCC3CCC3)sc2n1: 155%
- COCCCOc1nc2c(NCc3ccncc3)nc(Cl)nc2[nH]1: 165%
- OCCOc1nc2c(NCc3nccs3)nc(Cl)nc2[nH]1: 191%
- CC(=O)N1Cc2nc(Cl)nc(NCc3nccs3)c2C1: 20%
- FC(F)(F)CCOc1nc2c(NCc3cscn3)nc(Cl)nc2[nH]1: 156%
- Cc1ccccc1CNc1ncnc2[nH]cnc12: 53%
- OCCn1ncc2c(NCc3ccncc3)nc(Cl)nc21: 154%
- CCOc1nc2c(NCc3ccncc3)nc(Cl)nc2[nH]1: 254%
- CC(=O)N1CC(Oc2nc3c(NCc4nccs4)nc(Cl)nc3[nH]2)C1: 13.3%
- Clc1nc(NCc2cncs2)c2cc[nH]c2n1: 25.1%
- CCCOc1nc2c(NCc3nccs3)nc(Cl)nc2n1CCO: 195%
- OCCOc1nc2c(NCc3ccncn3)nc(Cl)nc2[nH]1: 194%
- Fc1cc(CNc2nc(Cl)nc3[nH]ccc23)ccn1: 114%
- Clc1nc2c(c(NCc3nccs3)n1)COC2: 28%
- COc1nc2c(N(C)Cc3nccs3)nc(Cl)nc2[nH]1: 22%

Measured values drawn from patent US11702417B2 for this set.
